Molecular target: BCLXL (Homo sapiens, UniProt Q07817, V10N/V9A)
Sequence (Q07817 with tags, fused parts or gaps V9A/V10N): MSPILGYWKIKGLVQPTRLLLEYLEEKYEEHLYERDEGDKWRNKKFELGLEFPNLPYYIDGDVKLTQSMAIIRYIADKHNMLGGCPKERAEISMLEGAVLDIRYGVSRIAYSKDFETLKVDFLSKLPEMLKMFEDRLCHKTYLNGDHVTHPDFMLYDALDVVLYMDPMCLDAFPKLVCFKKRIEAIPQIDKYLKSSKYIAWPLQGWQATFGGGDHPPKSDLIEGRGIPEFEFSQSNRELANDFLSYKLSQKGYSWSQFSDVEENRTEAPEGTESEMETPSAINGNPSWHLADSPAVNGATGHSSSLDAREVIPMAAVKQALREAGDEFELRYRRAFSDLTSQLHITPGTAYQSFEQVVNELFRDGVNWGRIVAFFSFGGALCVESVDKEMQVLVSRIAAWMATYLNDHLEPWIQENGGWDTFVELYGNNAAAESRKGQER
Test: Fluorescence polarisation assay (PUMA-based probe displacement); note: 20 nM protein, 10 nM fluorescent probe
Description: Fluorescence polarization measures the rotation of a fluorescing species in solution, the larger the molecule the more polarized the fluorescence emission. [[…]] […] An 11-point serial dilution of each compound was prepared in DMSO, the final buffer conditions were 10 mM 4-(2-hydroxyethyl)-1-piperazineethanesulfonic acid [HEPES], 150 mM NaCl, 0.05% Tween 20, pH 7.4 and 5% DMSO. […] The KI values were determined from the IC50 values according to Cer et al, Nucleic Acids Res, 2009, Jul. […]
pKi: −log10 of the molar value.
Quick rule for you: pKi at 7 or higher means yes (1), lower means no (0).

Would you please look over these solved cases?
{"columns": ["compound", "class_label"],
 "data": [
  ["Cc1cc(N(C)c2nc(C(=O)O)c(-c3cnn(CC45CC6CC(CC(C6)C4)C5)c3C)s2)nnc1Nc1nc2ccccc2s1", "yes (1)"],
  ["Cc1c(Nc2nc(C(=O)O)cs2)nnc(Nc2nc3ccccc3s2)c1C(C)C", "no (0)"]
]}

Ask: Does the reported pKi for `Cc1cc(N(C)c2nc(C(=O)O)c(C3CCCC3)s2)nnc1Nc1nc2ccccc2s1` fall at or above the 7 mark?
Result: no (0)

Ask: Reported pKi at or above 7? Cc1cc(N(CCCC(O)CO)c2nc(C(=O)O)cs2)nnc1Nc1nc2ccccc2s1 (stereo not drawn)
Result: yes (1)

Ask: Given `Cc1c(-c2sc(N(C)c3cc(C4CC4)c(Nc4nc5ccccc5s4)nn3)nc2C(=O)O)cnn1CC12CC3CC(CC(C3)C1)C2` , state whether its pKi is at least 7.
Result: yes (1)

---

Listing: pIC50 of selected compounds
system: MOLT-4 cells; experiment: MOLT-4 cell viability, MTT assay; type: cell-based; details: Homo sapiens, MOLT-4, 48 h, 48 h exposure
Remember the convention: pIC50 equals -log10 of concentration in molar.

What the record says about `Cc1cc(N(C)c2nc(C(=O)O)c(CCCOc3ccc(C#CCN(C)C)cc3F)s2)nnc1Nc1nc2ccccc2s1` : pIC50 is 9.34

Record `CCN(c1cc(C)c(Nc2nc3ccccc3s2)nn1)c1nc(C(=O)O)cs1` . Reported pIC50: 5.13

Lab note: measured pIC50 of `CNCCN(C)CC#Cc1ccc(OCCCc2sc(N(C)c3cc(C)c(Nc4nc5ccccc5s4)nn3)nc2C(=O)O)c(F)c1` was 8.17

Quick note, pIC50 for `Cc1cc(N(C)c2nc(C(=O)O)c(N3CC(OCc4ccccc4)C3)s2)nnc1Nc1nc2ccccc2s1` landed at 6.55

---

tested on: H146 cells; test: H146 cell viability, MTT assay; assay type: cell-based; conditions: Homo sapiens, NCI-H146, 48 h, 48 h exposure
experimental_readout: IC50 (µM)
Report the figure in µM without appending any unit label.

Worked cases, IC50 given:
{"columns": ["compound", "experimental_system", "value_units", "IC50"],
 "data": [
  ["CCN(CC)CCNCCCCN(c1cc(C)c(Nc2nc3ccccc3s2)nn1)c1nc(C(=O)O)c(CCCOc2ccc(C#CCN(C)C)cc2F)s1", "H146 cells", "µM", 0.124],
  ["COCCCC1(Cn2ncc(-c3sc(N(C)c4cc(C)c(Nc5nc6ccccc6s5)nn4)nc3C(=O)O)c2C)CCCCC1", "H146 cells", "µM", 2.04],
  ["CNCC#Cc1ccc(OCCCc2sc(N(CCCC(O)C[N+](C)(C)CCCS(=O)(=O)[O-])c3cc(C)c(Nc4nc5ccccc5s4)nn3)nc2C(=O)O)c(F)c1 (stereo not shown)", "H146 cells", "µM", 0.971],
  ["CNCC#Cc1ccc(OCCCc2sc(N(CCCCN(C)C)c3cc(C)c(Nc4nc5ccccc5s4)nn3)nc2C(=O)O)c(F)c1", "H146 cells", "µM", 0.0214]
]}

Kindly consider the entry below.
// IC50 (H146 cells) for CNCCN(C)CC(O)CCCN(c1cc(C)c(Nc2nc3ccccc3s2)nn1)c1nc(C(=O)O)c(CCCOc2ccc(C#CCN(C)C)cc2F)s1 (stereo not shown) = 0.0731
